# System: VSV-S (pseudotyped VSV carrying the S protein of Wuhan-Hu-1 SARS-CoV-2)
# test-name: microbe, parasite or virus in culture
# Type: cell-based
# condition-info: Vesicular stomatitis virus, read-out: IC50 (concentration at which virus infection is reduced by 50%), VSV-S in A549-ACE2-TMPRSS2 cells
pIC50: −log10 of the molar value.
Listed here: items and their measured pIC50.
quantity-kind: pIC50

- compound: "CCCCCC(=O)NCC(=O)NC(CCC(=O)NC(Cc1c(Sc2ccc([N+](=O)[O-])cc2)[nH]c2ccccc12)C(=O)O)(CCC(=O)NC(Cc1c(Sc2ccc([N+](=O)[O-])cc2)[nH]c2ccccc12)C(=O)O)CCC(=O)NC(Cc1c(Sc2ccc([N+](=O)[O-])cc2)[nH]c2ccccc12)C(=O)O (stereo not shown) [Compound 56]"
  assay-system: "VSV-S (pseudotyped VSV carrying the S protein of Wuhan-Hu-1 SARS-CoV-2)"
  assay-result: 5.08
- compound: "NCC(=O)NC(CCC(=O)NC(Cc1c(Sc2ccc(C(F)(F)F)cc2)[nH]c2ccccc12)C(=O)O)(CCC(=O)NC(Cc1c(Sc2ccc(C(F)(F)F)cc2)[nH]c2ccccc12)C(=O)O)CCC(=O)NC(Cc1c(Sc2ccc(C(F)(F)F)cc2)[nH]c2ccccc12)C(=O)O (stereo not shown) [Compound 38]"
  assay-system: "VSV-S (pseudotyped VSV carrying the S protein of Wuhan-Hu-1 SARS-CoV-2)"
  assay-result: 4.94
- compound: "CCCCCCCCCC(=O)NCC(=O)NC(CCC(=O)NC(Cc1c(Sc2ccc([N+](=O)[O-])cc2)[nH]c2ccccc12)C(=O)O)(CCC(=O)NC(Cc1c(Sc2ccc([N+](=O)[O-])cc2)[nH]c2ccccc12)C(=O)O)CCC(=O)NC(Cc1c(Sc2ccc([N+](=O)[O-])cc2)[nH]c2ccccc12)C(=O)O (stereo not shown) [Compound 58]"
  assay-system: "VSV-S (pseudotyped VSV carrying the S protein of Wuhan-Hu-1 SARS-CoV-2)"
  assay-result: 5.01
- compound: "CCCCCCCC(=O)NCC(=O)NC(CCC(=O)NC(Cc1c(Sc2ccc([N+](=O)[O-])cc2)[nH]c2ccccc12)C(=O)O)(CCC(=O)NC(Cc1c(Sc2ccc([N+](=O)[O-])cc2)[nH]c2ccccc12)C(=O)O)CCC(=O)NC(Cc1c(Sc2ccc([N+](=O)[O-])cc2)[nH]c2ccccc12)C(=O)O (stereo not shown) [Compound 57]"
  assay-system: "VSV-S (pseudotyped VSV carrying the S protein of Wuhan-Hu-1 SARS-CoV-2)"
  assay-result: 4.95
- compound: "NCC(=O)NC(CCC(=O)NC(Cc1c(Sc2cccc([N+](=O)[O-])c2)[nH]c2ccccc12)C(=O)O)(CCC(=O)NC(Cc1c(Sc2cccc([N+](=O)[O-])c2)[nH]c2ccccc12)C(=O)O)CCC(=O)NC(Cc1c(Sc2cccc([N+](=O)[O-])c2)[nH]c2ccccc12)C(=O)O (stereo not shown) [Compound 37]"
  assay-system: "VSV-S (pseudotyped VSV carrying the S protein of Wuhan-Hu-1 SARS-CoV-2)"
  assay-result: 5.07
